- testSummary: High-throughput drug toxicity screening in the BPDCN cell line Gen2.2 (AID 1224824);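 note: cells exposed to compounds for 48 h before reading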
- testConditions: Gen2.2 BPDCN cells; at 45.8 µM (top of the series) unless noted
Lab note: anything with cell viability, % of control (lower = more cytotoxic) below 90% is marked True; values at 90% or higher are marked False.

Please review the entries below; each comes with its answer.
compound	categoryLabel
CC(C)NC[C@@H](C(=O)N1CCN(c2ncnc3c2[C@H](C)C[C@H]3O)CC1)c1ccc(Cl)cc1	True
CCOC(=O)C=C[C@H](C[C@@H]1CCNC1=O)NC(=O)[C@@H](CC(=O)[C@@H](NC(=O)c1cc(C)on1)C(C)C)Cc1ccc(F)cc1	True
NS(=O)(=O)OC[C@@H]1C[C@@H](n2ccc3c(N[C@H]4CCc5ccccc54)ncnc32)C[C@H]1O	True

Shifting focus to the compound that follows.
QUERY: Is the reported cell viability, % of control (lower = more cytotoxic) for `CC[C@H]1OC(=O)[C@H](C)[C@@H](O[C@H]2C[C@@](C)(OC)[C@@H](O)[C@H](C)O2)[C@H](C)[C@@H](O[C@@H]2O[C@H](C)C[C@H](N(C)C)[C@@H]2O)[C@](C)(OC)C[C@@H](C)C(=O)[C@H](C)[C@@H](O)[C@]1(C)O` strictly below 90%?
RESULT: False
